- TESTED ON: F508delCFTR cell surface expression in CFBE41o-F508delCFTR-HRP cells (Homo sapiens, UniProt P13569, DEL508-508)
- Construct: fused on or other part: Horseradish peroxidase (HRP) reporter inserted in the fourth exofacial (extracellular) loop of CFTR; expression is doxycycline-inducible
- Sequence (P13569 with tags, fused parts or gaps DEL508-508 limits assumed): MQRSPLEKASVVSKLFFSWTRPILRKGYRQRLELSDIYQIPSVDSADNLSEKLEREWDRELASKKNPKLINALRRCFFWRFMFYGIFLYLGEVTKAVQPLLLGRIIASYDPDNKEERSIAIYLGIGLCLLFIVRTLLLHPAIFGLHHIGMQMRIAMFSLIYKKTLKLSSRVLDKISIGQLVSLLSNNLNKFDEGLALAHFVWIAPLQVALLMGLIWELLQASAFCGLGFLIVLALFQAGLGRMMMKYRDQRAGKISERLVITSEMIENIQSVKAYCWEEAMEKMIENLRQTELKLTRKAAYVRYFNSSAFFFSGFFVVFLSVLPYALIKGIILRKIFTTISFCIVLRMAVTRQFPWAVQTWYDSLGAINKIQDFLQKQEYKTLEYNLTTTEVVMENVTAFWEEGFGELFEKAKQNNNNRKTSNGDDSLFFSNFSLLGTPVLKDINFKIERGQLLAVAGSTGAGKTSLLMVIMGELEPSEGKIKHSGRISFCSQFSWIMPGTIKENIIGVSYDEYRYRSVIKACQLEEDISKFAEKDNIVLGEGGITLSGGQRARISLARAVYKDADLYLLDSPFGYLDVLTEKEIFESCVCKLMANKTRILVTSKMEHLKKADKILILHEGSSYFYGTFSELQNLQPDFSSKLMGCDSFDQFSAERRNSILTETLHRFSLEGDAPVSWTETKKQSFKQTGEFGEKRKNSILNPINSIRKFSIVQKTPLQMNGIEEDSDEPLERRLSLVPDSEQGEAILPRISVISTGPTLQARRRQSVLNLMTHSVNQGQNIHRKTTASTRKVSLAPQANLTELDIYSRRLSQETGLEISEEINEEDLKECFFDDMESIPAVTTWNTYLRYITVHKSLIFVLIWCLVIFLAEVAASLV
- Sequence (P13569 919-1480 limits assumed, stated change not applied): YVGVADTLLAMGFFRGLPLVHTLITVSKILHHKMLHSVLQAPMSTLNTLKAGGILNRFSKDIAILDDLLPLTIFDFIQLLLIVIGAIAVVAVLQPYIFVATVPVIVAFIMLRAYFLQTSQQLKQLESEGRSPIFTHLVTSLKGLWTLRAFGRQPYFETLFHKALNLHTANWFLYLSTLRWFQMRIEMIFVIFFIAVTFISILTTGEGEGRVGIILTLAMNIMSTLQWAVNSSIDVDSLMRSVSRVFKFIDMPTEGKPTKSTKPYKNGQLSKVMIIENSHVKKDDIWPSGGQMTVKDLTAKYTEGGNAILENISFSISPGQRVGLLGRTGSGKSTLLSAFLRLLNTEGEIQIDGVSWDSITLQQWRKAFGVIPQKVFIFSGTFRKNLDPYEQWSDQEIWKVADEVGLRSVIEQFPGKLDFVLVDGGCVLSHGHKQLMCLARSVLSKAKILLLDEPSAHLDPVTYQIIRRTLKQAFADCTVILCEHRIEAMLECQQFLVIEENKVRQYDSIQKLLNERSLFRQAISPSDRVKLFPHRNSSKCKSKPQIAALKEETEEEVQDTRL
- EXPERIMENT: Cell Surface Expression-Horse Radish Peroxidase (CSE-HRP) Assay
- Type: cell-based
- REPORTED CONDITIONS: maximum at any tested concentration, normalized to on-plate positive control (3 μM)
Listed below: Maximum % activity (%) values for each entry.
EXPERIMENTAL READOUT: Maximum % activity (%)

INSERT INTO results (compound, experimental_readout, measurement_unit, experimental_result) VALUES
  ('COC(=O)c1ccc([C@H]2C[C@@H](NC(=O)C3(C)COc4cc5c(cc43)OC(F)(F)O5)c3ccc(OC)cc3O2)cc1 (stereo partly shown)', 'Maximum % activity (%)', '%', 143),
  ('C[C@]1(C(=O)N[C@@H]2C[C@H]([C@H]3CC[C@H](C(=O)N4C[C@@H](O)[C@H](O)C4)CC3)Oc3cc(OC(F)(F)F)ccc32)COc2cc3c(cc21)OC(F)(F)O3', 'Maximum % activity (%)', '%', 158),
  ('COc1ccc2c(c1)O[C@@H](c1ccc(C(=O)O)cc1)C[C@H]2NC(=O)[C@@]1(C)CCc2c1ccc1c2OCO1', 'Maximum % activity (%)', '%', 61),
  ('C[C@]1(C(=O)Nc2cccc(-c3cc(C(=O)O)cs3)n2)COc2cc3c(cc21)OC(F)(F)O3', 'Maximum % activity (%)', '%', 112),
  ('COc1ccc2c(c1)O[C@@H](c1ccc(C(=O)NC(CO)c3ccccc3OC)cn1)C[C@H]2NC(=O)[C@@]1(C)COc2cc3c(cc21)OC(F)(F)O3 (stereo partly shown)', 'Maximum % activity (%)', '%', 116),
  ('CC1(C(=O)N[C@@H]2C[C@H](c3cccc(C(=O)O)c3)Oc3ccccc32)CCc2cc3c(cc21)OC(F)(F)O3 (stereo partly shown)', 'Maximum % activity (%)', '%', 76),
  ('CCOC(=O)c1csc(-c2cccc(NC(=O)[C@@]3(C)COc4cc5c(cc43)OC(F)(F)O5)n2)c1', 'Maximum % activity (%)', '%', 116),
  ('CC1(C)OC[C@@H](Cn2nc(-c3ccccc3)cc(NC(=O)[C@@]3(C)COc4cc5c(cc43)OC(F)(F)O5)c2=O)O1', 'Maximum % activity (%)', '%', 85),
  ('COc1ccc2c(c1)O[C@H](Cn1ncccc1=O)C[C@@H]2NC(=O)[C@@]1(C)COc2cc3c(cc21)OC(F)(F)O3', 'Maximum % activity (%)', '%', 40),
  ('CCOC(=O)[C@H]1CC[C@H]([C@@H]2C[C@H](NC(=O)[C@@]3(C)COc4cc5c(cc43)OC(F)(F)O5)c3ccc(OC)cc3O2)CC1', 'Maximum % activity (%)', '%', 102),
  ('COc1ccc2c(c1)O[C@@H](c1ccc(C(=O)NCC(N)=O)cn1)C[C@H]2NC(=O)[C@@]1(C)COc2cc3c(cc21)OC(F)(F)O3', 'Maximum % activity (%)', '%', 113),
  ('C[C@]1(C(=O)N[C@H]2C[C@@H](C3CCN(CC(=O)O)CC3)Oc3cc(OC(F)(F)F)ccc32)COc2cc3c(cc21)OC(F)(F)O3', 'Maximum % activity (%)', '%', 12),
  ('CC(C)(CO)c1cc2cc(NC(=O)[C@@]3(C)COc4cc5c(cc43)OC(F)(F)O5)c(F)cc2[nH]1', 'Maximum % activity (%)', '%', 129);
